Reported pIC50 by item:
# Tested on: A549 (carcinomic human alveolar basal epithelial cell)
# PROTOCOL SUMMARY: CCK-8 antiproliferative assay, A549 cell line
# Format: cell-based
# EXPERIMENTAL SETUP: Homo sapiens, A549, read-out: IC50 A549
FYI, pIC50 means -log10 of a concentration in mol per litre.

Examples from the recorded data:
>>> quantitative_result("CCOP(=O)(CC1C=C(Nc2ccc(C)cc2)C(=O)N1c1ccc(C)cc1)OCC (centres unmarked)")
4.95
>>> quantitative_result("CCOP(=O)(CC1C=C(Nc2ccc(OC)cc2)C(=O)N1c1ccc(OC)cc1)OCC (centres unmarked)")
5.16
>>> quantitative_result("CCOP(=O)(CC1=C(C)C(C)(Nc2ccc(C)cc2)C(=O)N1c1ccc(C)cc1)OCC (centres unmarked)")
5.44

Kindly consider the entry below.
What measured pIC50 goes with CCOP(=O)(C[C@H]1C[C@@H](Nc2ccc(C)cc2)C(=O)N1c1ccc(C)cc1)OCC [18b] ? 5.37
